Euclidean distance for assorted compounds
# Tested on: HEPG2
# Assay method text: Euclidean distance of Cell Painting phenotypic profile (signed KS, 77 features) to DMSO centroid (dimensionless distance); 5 or 10 uM (library dependent); higher = stronger phenotypic change vs DMSO (phenoactivity)
# Cond: 48 h
Where a name gives a salt, the structure may show the parent alone.
Measurement name: Euclidean distance

Compound | Endpoint result
CCOC(=O)C1=C(C)NC(C)=C(C(=O)OCC)C1c1ccccc1/C=C/C(=O)OC(C)(C)C [Lacidipine] | 0.707
Cc1c(S(=O)(=O)O)oc2c1C(=O)C(=O)c1c-2ccc2c1CCCC2(C)C [Tanshinone IIA sulfonate (sodium)] | 0.728
O=C(CSc1nc2c(c(=O)n1-c1ccccc1)SCC2)Nc1ccc(-c2ccccc2)cn1 | 1.42
NCc1ccc(S(N)(=O)=O)cc1 [Mafenide hydrochloride] | 0.629
NC(=O)NO [Hydroxyurea] | 0.79
CCCC(C)NC(=O)c1ccc(Cl)c(Cl)c1 (centres undefined) | 0.75
Nc1nc2n[nH]nc2c(=O)[nH]1 [Azaguanine-8] | 1.17
CC#C[C@]1(O)CC[C@H]2[C@@H]3CCC4=CC(=O)CCC4=C3[C@@H](c3ccc(N(C)C)cc3)C[C@@]21C [Mifepristone] | 1.01
Cc1ccc(S(=O)(=O)/C=C/C#N)cc1 | 2.05
COc1cc(NS(C)(=O)=O)ccc1Nc1c2ccccc2nc2ccccc12 [Amsacrine hydrochloride] | 3.28
C[C@]12C[C@H](O)[C@H]3[C@@H](CCC4=CC(=O)CC[C@@]43C)[C@@H]1CC[C@@H]2C(=O)CO [Corticosterone] | 0.619
OC1(c2ccc(Cl)c(C(F)(F)F)c2)CCN(CCCC(c2ccc(F)cc2)c2ccc(F)cc2)CC1 [Penfluridol] | 4.97
O=S(=O)(O)CCS [Mesna] | 2.1
O=C(O)c1cc(O)c(O)c(O)c1 [Gallic acid] | 0.825
COc1c(N2C[C@@H]3CCCN[C@@H]3C2)c(F)cc2c(=O)c(C(=O)O)cn(C3CC3)c12 [Moxifloxacin] | 0.804
O=C(C=Cc1ccccc1)NC(NC(=S)Nc1ccc(Cl)cc1)C(Cl)(Cl)Cl (centres undefined) | 2.23
CNC(CC(=O)O)C(=O)O [NMDA (N-Methyl-D-aspartic acid)] | 0.901
Cc1ccc(C(=O)c2cc(O)c(O)c([N+](=O)[O-])c2)cc1 [Tolcapone] | 0.591
Nc1cc(C(F)(F)F)c(-c2nc(N3CCOCC3)nc(N3CCOCC3)n2)cn1 [Bimiralisib (PQR309)] | 2.44

----------
# System: FB
# Assay method text: Euclidean distance of Cell Painting phenotypic profile (signed KS, 77 features) to DMSO centroid (dimensionless distance); 5 or 10 uM (library dependent); higher = stronger phenotypic change vs DMSO (phenoactivity)
# Cond: 48 h
Structures can show the parent of a compound that is named as a salt.
Recorded Euclidean distance for the following molecules

Molecule | Assay system | Euclidean distance
CN1C(C(=O)Nc2ccccn2)=C(O)c2sc(Cl)cc2S1(=O)=O [Lornoxicam] | FB | 0.965
O=c1c(-n2ccnn2)c[nH]n1-c1cc(N2CCOCC2)ncn1 [Molidustat (BAY 85-3934)] | FB | 1.09
CCOc1ccc2nc3cc(N)ccc3c(N)c2c1 [Ethacridine lactate monohydrate] | FB | 3.62
Cc1nc2ccc(-n3ncc(C(=O)c4cc5ccccc5[nH]4)c3N)cc2[nH]1 | FB | 3.31
Cc1cc(Nc2cc(CN3CCOCC3)c3nc(C)c(Cc4ccc(Cl)cc4F)n3n2)n[nH]1 | FB | 1.71
CCCC(=O)O[C@]1(C(=O)CO)CC[C@H]2[C@@H]3CCC4=CC(=O)CC[C@]4(C)[C@H]3[C@@H](O)C[C@@]21C [Hydrocortisone butyrate] | FB | 1.7
C[C@@H]1CCO[C@H]2Cn3cc(C(=O)NCc4ccc(F)cc4F)c(=O)c(O)c3C(=O)N12 | FB | 1
C/C(=N\NC(=S)N1CCC1)c1ccccn1 | FB | 3.45
C[N+]1(C)CCC(OC(=O)C(O)(c2ccccc2)C2CCCC2)C1 (configuration not stated) [Glycopyrrolate] | FB | 1.02
CN(CCOc1ccc(CC2SC(=O)NC2=O)cc1)c1ccccn1 (configuration not stated) [Rosiglitazone] | FB | 1.79
Nc1nc(OCc2cc(Br)cs2)c2[nH]cnc2n1 [Lomeguatrib] | FB | 1.29
CN1[C@@H](CC(=O)c2ccccc2)CCC[C@H]1C[C@H](O)c1ccccc1 [Lobeline hydrochloride] | FB | 1.44
CC1(C)CC(Oc2ccc(-c3ccc(-c4cn[nH]c4)cc3O)nn2)CC(C)(C)N1 [Branaplam (LMI070)] | FB | 3.24
COc1ccccc1OCCNCC(O)COc1cccc2[nH]c3ccccc3c12 (configuration not stated) [Carvedilol Phosphate] | FB | 1.66
COc1ccccc1Oc1c(NS(=O)(=O)c2ccc(C(C)(C)C)cc2)nc(-c2ncccn2)nc1OCCO [Bosentan Hydrate] | FB | 0.916
O=C(O)CCCC[C@@H]1CCSS1 (racemic) [Thioctic acid] | FB | 0.755
CO[C@@H]1[C@@H](OC(N)=O)[C@@H](O)[C@H](Oc2ccc3c(O)c(NC(=O)c4ccc(O)c(CC=C(C)C)c4)c(=O)oc3c2C)OC1(C)C [Novobiocin Sodium] | FB | 1.04
COc1ccc(CCC(=O)Nc2nc3ccc(Cl)cc3s2)cc1OC | FB | 0.998
Clc1ccc(COC(Cn2ccnc2)c2ccc(Cl)cc2Cl)c(Cl)c1 (configuration not stated) [Miconazole Nitrate] | FB | 0.864
N.N.O=C([O-])C[O-].[Pt+2] [Nedaplatin] | FB | 3.24
CS(=O)(=O)c1ccc(C(=O)Nc2ccc(Cl)c(-c3ccccn3)c2)c(Cl)c1 [Vismodegib (GDC-0449)] | FB | 1
CN1CCc2c(c3ccccc3n2Cc2ccccc2)C1 [Mebhydrolin napadisylate] | FB | 1.03
O=C(Nc1cccc(C(F)(F)F)c1)Nc1cc(S(=O)(=O)NC2CC2)ccc1-c1ccsc1 | FB | 1.51
CCCCC(F)(F)[C@@]1(O)CC[C@H]2[C@@H](CC(=O)[C@@H]2CCCCCCC(=O)O)O1 [Lubiprostone] | FB | 1.29
OCC1=C[C@@H](O)[C@@H]2C=CO[C@@H](O[C@@H]3O[C@H](CO)[C@@H](O)[C@H](O)[C@H]3O)[C@H]12 [Aucubin] | FB | 0.949
CC(=O)O[C@@]12CO[C@@H]1C[C@H](O)[C@@]1(C)C(=O)[C@H](O)C3=C(C)[C@@H](OC(=O)[C@H](O)[C@@H](NC(=O)OC(C)(C)C)c4ccccc4)C[C@@](O)([C@@H](OC(=O)c4ccccc4)[C@H]21)C3(C)C [Docetaxel Trihydrate] | FB | 2.26
CN(C)c1cc(NC(=O)CNC(C)(C)C)c(O)c2c1C[C@H]1C[C@H]3[C@H](N(C)C)C(O)=C(C(N)=O)C(=O)[C@@]3(O)C(O)=C1C2=O [Tigecycline] | FB | 1.6
COc1cc(OC)c(C(=O)CCCN2CCCC2)c(OC)c1 [Buflomedil HCl] | FB | 1.04
CCC1=C(C)CN(C(=O)NCCc2ccc(S(=O)(=O)NC(=O)N[C@H]3CC[C@H](C)CC3)cc2)C1=O [Glimepiride] | FB | 0.992
Cc1cn([C@H]2C[C@H](N=[N+]=[N-])[C@@H](CO)O2)c(=O)[nH]c1=O [Zidovudine] | FB | 1.2
CN1C(C(=O)Nc2ccccn2)=C(O)c2ccccc2S1(=O)=O [Piroxicam] | FB | 0.725
c1cc(CN2CCCNCCNCCCNCC2)ccc1CN1CCCNCCNCCCNCC1 [Plerixafor (AMD3100)] | FB | 0.848
